Hi there, I'd appreciate the recorded viability for every entry that follows.
MEASUREMENT_NOTES: ovarian cancer cell viability with rucaparib, profiling panel, oncology-focused library, rucaparib conditional (AID 1508598)
CONDITION_CONTEXT: patient-derived ovarian cancer cells, CellTiter-Glo viability, 144 h; at 0.0195 µM; OCI-C5x cells; with rucaparib 10 µM; stronger effect = lower value; 100% = cells with rucaparib alone
Please reply with the bare figure in % and do not write the unit itself.

I would be grateful if you could share the reported viability for COc1c(C)c2c(c(O)c1C/C=C(\C)CCC(=O)O)C(=O)OC2 .
121

// returns reported viability for input Nc1cccc2c1CN(C1CCC(=O)NC1=O)C2=O (stereo not given)
113

For the compound CCN(CC)CCNC(=O)c1c(C)[nH]c(/C=C2\C(=O)Nc3ccc(F)cc32)c1C , what viability is on record?
115

Any idea what its viability is? The compound is COc1cc(Nc2c(C#N)cnc3cc(OCCCN4CCN(C)CC4)c(OC)cc23)c(Cl)cc1Cl
122

Name the recorded viability for CNC(=O)c1ccccc1Sc1ccc2c(/C=C/c3ccccn3)n[nH]c2c1 .
114

###

MEASUREMENT_NOTES: sensitizers of A549 cells to miR-34 induction, primary screen, imaging, A549 dox-inducible miR-34, nuclei and caspase counts (AID 1347080)
CONDITION_CONTEXT: A549 miR-34 inducible, Hoechst nuclei count, 48 h; measured here: relative caspase fold change +Dox/-Dox
READOUT_LABEL: fold change
Keep the answer to the number alone.

Using the record for CN(C/C=C/c1ccccc1)Cc1cccc2ccccc12 , report its fold change.
0.94

Please look up its fold change: O=C(O)[C@H](O)c1ccccc1
0.478

Reported fold change for NC1(C(=O)O)CC1 : what is it?
1.33

For CCCCC(=O)Oc1ccccc1C(=O)O , what is its reported fold change?
0.938

Recorded fold change of CCC(C)(Oc1ccc(C2(c3ccc(OC(C)(CC)C(=O)O)cc3)CCCCC2)cc1)C(=O)O (configuration not stated) , please.
0.926

Fill blank: measured fold change of the compound CN(CCCCCCCCCCN(C)C(=O)Oc1cccc([N+](C)(C)C)c1)C(=O)Oc1cccc([N+](C)(C)C)c1 is ____.
1.05

Suppose we examine the compound CCOc1ccc(NC(=O)CC(C)O)cc1 (configuration not stated) ; what fold change value has been reported?
0.822

Any idea what its fold change is? The compound is Cc1ccc(O)cc1
3.01

Give the measured fold change of OCc1ccccn1 .
0.701

I am curious: what fold change value has been reported for O=C(NCC(O)CO)c1c(I)c(C(=O)NCC(O)CO)c(I)c(N(CCO)C(=O)CO)c1I (configuration not stated) ?
1.27

So what does the record say about fold change for CCN(CC)Cc1ccc(Nc2ccnc3cc(Cl)ccc23)cc1O ?
0.896

Would you mind telling me what fold change value was observed for C[n+]1cccc(C(=O)[O-])c1 ?
1.44

###

MEASUREMENT_NOTES: sensitizers of A549 cells to miR-34 induction, primary screen, imaging, A549 dox-inducible miR-34, nuclei and caspase counts (AID 1347080)
CONDITION_CONTEXT: A549 miR-34 inducible, Hoechst nuclei count, 48 h; measured here: total cells with miR-34 induction; stronger effect = lower value
READOUT_LABEL: cell count
API note: the answer field is a bare number with no unit suffix.

Would you kindly share the measured cell count for CCc1cccc(N(C)C(N)=Nc2cccc3ccccc23)c1 ?
7210

Item under review: CCOc1ccc2c(c1)C(C)=CC(C)(C)N2 . Reported cell count?
8590

Data request, read-out cell count, for OCCN1CCN(CC/C=C2/c3ccccc3Sc3ccc(C(F)(F)F)cc32)CC1
6940

Sample CCCOc1cc(N)ccc1C(=O)OCCN(CC)CC — what was its cell count?
9580

Data request, read-out cell count, for CNC(=O)c1c(I)c(NC(C)=O)c(I)c(C(=O)O)c1I
9390

Returns the measured cell count for the input molecule. Input: O=C(NCC(O)CO)c1c(I)c(C(=O)NCC(O)CO)c(I)c(N(CCO)C(=O)CO)c1I (stereo not given)
8520

For CC(=O)NCCCS(=O)(=O)O , what is its reported cell count?
8720

Consider the molecule shown here: O=C(O)c1cc(=O)c2ccc(Cl)cc2[nH]1 What is its recorded cell count?
8410

Which cell count value belongs to O=C(Nc1ccc(C(=O)O)c(O)c1)c1ccccc1 ?
11700

Report cell count for Cn1c(=O)[nH]c2ncn(C)c2c1=O please.
9800

Could you tell me which cell count is on file for O=C1[O][Bi][O]c2ccccc21 ?
12000

Could you share which cell count value was measured for CC(=O)N[C@@H](CC(C)C)C(=O)O ?
9170

Can you look up the measured cell count of CN(C)CCn1nnnc1SCC1=C(C(=O)O)N2C(=O)[C@@H](NC(=O)Cc3csc(N)n3)[C@H]2SC1 for me?
8320

Look at this molecule and give its reported cell count. OC1C(O)C(O)C(O)C(O)C1O (stereo not given)
11600

Recorded cell count for O=C1c2ccccc2C(=O)C1c1ccc(Br)cc1 , please?
10800

Fill blank: measured cell count of the molecule NS(=O)(=O)c1cc2c(cc1Cl)NC(CC1CCCC1)NS2(=O)=O (stereo not given) is ____.
9530

Give the measured cell count of NC(=O)c1cc[n+](CC2=C(C(=O)[O-])N3C(=O)[C@@H](NC(=O)Cc4cccs4)[C@H]3SC2)cc1 .
9810

Name the recorded cell count for CC(=O)O[C@@]12CO[C@@H]1C[C@H](O)[C@@]1(C)C(=O)[C@H](O)C3=C(C)[C@@H](OC(=O)[C@H](O)[C@@H](NC(=O)OC(C)(C)C)c4ccccc4)C[C@@](O)([C@@H](OC(=O)c4ccccc4)[C@H]21)C3(C)C .
2910

What does the record list as cell count for OCc1ccccc1O[C@@H]1O[C@H](CO)[C@@H](O)[C@H](O)[C@H]1O ?
12100

Fill in: cell count of Cc1nnc(C(=O)NC(C)(C)c2nc(C(=O)NCc3ccc(F)cc3)c(O)c(=O)n2C)o1 is ___
7710

Can you share its cell count? I mean this molecule: COc1ccc(-c2nc3ccc(C4=NNC(=O)CC4C)cc3[nH]2)cc1 (stereo not given)
5650

// returns reported cell count for input COc1cc(S(C)=O)ccc1-c1nc2ncccc2[nH]1 (stereo not given)
7350

Can you look up the measured cell count of CC(=O)Nc1ccc(C(=O)O)cc1 for me?
9250

What does the record list as cell count for COc1ccc(Cc2cnc(N)nc2N)cc1OC ?
9080

Bench note: what cell count did CC1CCCC(C)N1NC(=O)c1ccc(Cl)c(S(N)(=O)=O)c1 (stereo not given) show?
7530

// lookup cell count for C[C@@H]1[C@H](O)[C@@H](C)/C=C/C=C/C=C/C=C/C=C/C=C/C=C/[C@H](O[C@@H]2O[C@H](C)[C@@H](O)[C@H](N)[C@@H]2O)C[C@@H]2O[C@](O)(C[C@@H](O)C[C@@H](O)[C@H](O)CC[C@@H](O)C[C@@H](O)CC(=O)O[C@H]1C)C[C@H](O)[C@H]2C(=O)O
7670

Using the record for NCCC(O)(P(=O)(O)O)P(=O)(O)O , report its cell count.
9450

Reported cell count, molecule O=C(O)CN(CCN(CC(=O)O)CC(=O)O)CC(=O)O : ____
11600

Give its cell count value. Item: COc1ccc2c(c1OC)C(=O)O[C@H]2[C@H]1c2c(cc3c(c2OC)OCO3)CCN1C
8940

State the recorded cell count for this entry: O=C1OC2(c3ccc(O)cc3Oc3cc(O)ccc32)c2ccccc21
11200

Which cell count is reported for this molecule? CC12CC[C@H](CC1=O)C2(C)C
10900

For CC(C)(C)NC[C@H](O)c1ccc(O)c(CO)c1 , what is its reported cell count?
7950

Consider the molecule shown here: O=C1OC(OC(=O)c2cccnc2Nc2cccc(C(F)(F)F)c2)c2ccccc21 (stereo not given) What is its recorded cell count?
7990

Which cell count value belongs to COP(=O)(OC)OC(c1ccc(Cl)cc1)P(=O)(OC)OC (stereo not given) ?
8810

Name the recorded cell count for COc1cc(C(=O)N2CCOCC2)cc(OC)c1OC .
11700

###

Tested on: R275C
MEASUREMENT_NOTES: modulators of BK channel variants, profiling panel, selectivity assay, cell-based, U2OS BacMam, thallium flux, beta subunits (AID 1259406);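 note: initial slope of Thallos dye fluorescence rise after thallium is added; log ratio against the mean of 0.3% DMSO vehicle wells on the same plate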
CONDITION_CONTEXT: at 30 µM
Note to self: values exactly at -0.02 are fulfilled. So log fold change Tl+ flux at or above -0.02 is fulfilled, below is not fulfilled.

Answer whether log fold change Tl+ flux of Cn1cc[nH]c1=S is greater than or equal to -0.02.
fulfilled

Entry O=C(CCCN1CCC(O)(c2ccc(Cl)cc2)CC1)c1ccc(F)cc1 : is its log fold change Tl+ flux no less than -0.02?
not fulfilled

// inclusive: log fold change Tl+ flux at least -0.02? input: Clc1ccccc1CN1CCc2sccc2C1
not fulfilled

Check the entry CC[C@H]1OC(=O)[C@H](C)[C@@H](O[C@H]2C[C@@](C)(OC)[C@@H](O)[C@H](C)O2)[C@H](C)[C@@H](O[C@@H]2O[C@H](C)C[C@H](N(C)C)[C@H]2O)[C@](C)(OC)C[C@@H](C)C(=O)[C@H](C)[C@@H](O)[C@]1(C)O : does log fold change Tl+ flux equal or exceed -0.02?
not fulfilled

Can CN(C)c1nc(N(C)C)nc(N(C)C)n1 be said to have log fold change Tl+ flux at or above -0.02?
fulfilled

Item CCCC1O[C@@H]2C[C@H]3[C@@H]4CCC5=CC(=O)C=C[C@]5(C)[C@H]4[C@@H](O)C[C@]3(C)[C@]2(C(=O)CO)O1 (some centres not stated) with log fold change Tl+ flux of -0.02 or above?
fulfilled

Is log fold change Tl+ flux at least -0.02? Consider Cc1cccc(C)c1NC(=O)C1CCCCN1C (configuration not stated)
not fulfilled

State whether the measured log fold change Tl+ flux reaches -0.02, counting equality as reaching it, for COC(=O)C1=C(C)NC(C)=C(C(=O)OCCN(C)Cc2ccccc2)C1c1cccc([N+](=O)[O-])c1 (configuration not stated)
not fulfilled

Is it the case that CC(CCc1ccccc1)NCC(O)c1ccc(O)c(C(N)=O)c1 (configuration not stated) has log fold change Tl+ flux reaching or exceeding -0.02?
fulfilled

Can C[C@]12CC[C@@H]3c4ccc(O)cc4CC[C@H]3[C@@H]1CC[C@@H]2O be said to have log fold change Tl+ flux at or above -0.02?
fulfilled

Has CNCCC(Oc1ccc(C(F)(F)F)cc1)c1ccccc1 (configuration not stated) a recorded log fold change Tl+ flux greater than or equal to -0.02?
not fulfilled

Is it the case that Nc1ccn([C@@H]2O[C@H](CO)[C@@H](O)C2O)c(=O)n1 (some centres not stated) has log fold change Tl+ flux reaching or exceeding -0.02?
fulfilled

Origin of the recorded values: PubChem BioAssay
